System: NCI-H1755
Assay: relative viability (nuclei count vs DMSO), 5 days (fraction); higher = more cells survive
Conditions: first compound 0.005 µM
List of relative viability values.
Please reply with the value in numeric form only.

Record excerpt, results attached:
Quick one: relative viability for Nc1ccn([C@@H]2O[C@H](CO)[C@@H](O)[C@@H]2O)c(=O)n1 [Cytarabine] + CCNC(=O)c1noc(-c2cc(C(C)C)c(O)cc2O)c1-c1ccc(CN2CCOCC2)cc1 [Luminespib] (partner 0.01 µM) ?
0.879

Record: COc1cc2nccc(Oc3ccc(NC(=O)Nc4cc(C)on4)c(Cl)c3)c2cc1OC [Tivozanib] + Cc1nc(NC(=O)N2CCC[C@H]2C(N)=O)sc1-c1ccnc(C(C)(C)C(F)(F)F)c1 [Alpelisib] (partner 2 µM)
0.925

Record: COc1cc2nccc(Oc3ccc(NC(=O)Nc4cc(C)on4)c(Cl)c3)c2cc1OC [Tivozanib] + Nc1ncn([C@H]2C[C@H](O)[C@@H](CO)O2)c(=O)n1 [Decitabine] (partner 2 µM)
0.716

Others:
Quick one: relative viability for COc1cc2nccc(Oc3ccc(NC(=O)Nc4cc(C)on4)c(Cl)c3)c2cc1OC [Tivozanib] + Nc1nc2[nH]cc(CCc3ccc(C(=O)N[C@@H](CCC(=O)O)C(=O)O)cc3)c2c(=O)[nH]1 [Pemetrexed] (partner 0.2 µM) ?
0.376
